For each record, write down the corresponding GI50.
Test system: CAKI-1
protocol-summary: NCI tumour cell line growth inhibition, 48 h
Active and inactive are the calls of the source. Cut-off read from the data, not from the text of the source: active = GI50 up to about 1.1 µM and inactive = higher.

Exercise: Requested read-out: GI50. Entry: COC(=O)C1(C(C)C)CCc2c(OC)ccc(OC)c2C1=O (stereo unspecified)
Solution: > 100 µM (inactive)

Exercise: Requested read-out: GI50. Entry: COc1cc(OC)c2c(=O)cc(-c3ccccc3F)[nH]c2c1
Solution: 61.5 µM (inactive)

Exercise: Requested read-out: GI50. Entry: CN(C(=O)C1=CCC2(CC1)OCCO2)c1ccccc1I
Solution: > 100 µM (inactive)

Exercise: Requested read-out: GI50. Entry: Nc1ccccc1C(=O)CCC1C(=O)NC(=S)NC1=O
Solution: > 100 µM (inactive)

Exercise: Requested read-out: GI50. Entry: CC(=O)OC1COC(n2nc(N)nc2C)C(OC(C)=O)C1OC(C)=O (stereo unspecified)
Solution: > 100 µM (inactive)

Exercise: Requested read-out: GI50. Entry: COc1ccc(CCNC2=CC(=O)c3ncccc3C2=O)cc1OC
Solution: 1.71 µM (inactive)

Provenance of the data: ChEMBL document CHEMBL1201862
